# Test system: HCT-15 colon
# assay.remarks: NCI tumour cell line growth inhibition, 48 h
Give TGI for every item shown.
One number for each entry, in µM.

O=C(N/N=C/c1cc(Cl)cc(Cl)c1[O-])c1ccccc1O.O=C(N/N=C/c1cc(Cl)cc(Cl)c1[O-])c1ccccc1O.[Cl-].[Fe+3]    18.7
Cn1cc(-c2ccc(-c3cn(C)c4ccc(Cl)cc34)[nH]2)c2cc(Cl)ccc21    2.5
CC(C)(CN1CCCCC1)C(=O)/C=C/c1ccc(Cl)c(Cl)c1    2.73

Now turn to the next compound.
Which TGI is reported for this compound? CCOP1(=O)C=CC(Cl)=C(C)C1 (stereo not drawn)
30.1

Hello, the source for this data is PubChem BioAssay (NCI), in case you need it.
